species: Rattus norvegicus; experiment: Open TG-GATES - Regimen: Single; type: toxicity, organism-based, Sprague-Dawley; design: regimen Single, gender Male, age 6 weeks; details: in vivo, po, 100 mg/kg, 24 h, tissue Plasma, route gavage, dose level Low
Experimental Readout: RALB (g/dL)
Reply with just the number (in g/dL).

Here is how some compounds turned out for RALB.
1. O=C(O)c1cc(/N=N/c2ccc(S(=O)(=O)Nc3ccccn3)cc2)ccc1O [SULFASALAZINE]    3.5
2. O=C(O)c1cn(C2CC2)c2cc(N3CCNCC3)c(F)cc2c1=O [CIPROFLOXACIN]    3.8
3. C[C@H](CS)C(=O)N1CCC[C@H]1C(=O)O [CAPTOPRIL]    4
4. Clc1ccccc1CN1CCc2sccc2C1 [TICLOPIDINE]    3.4

For this compound ( CCc1cc(C(N)=S)ccn1 [ETHIONAMIDE] ), measured RALB is 3.6

* * *

species: Rattus norvegicus; experiment: Open TG-GATES - Regimen: Daily Repeat; assay type: toxicity, organism-based, Sprague-Dawley; design: regimen Daily Repeat, gender Male, age 6 weeks; conditions: in vivo, po, 0 mg/kg, […], route gavage, dose level Control, time 7 day
Documented TERMINAL_BW across a set of molecules
Reply with just the number (in g).

Here is how some molecules turned out for TERMINAL_BW.
1) COc1ccc(Cc2nccc3cc(OC)c(OC)cc23)cc1OC    267.4
2) NC(=O)N1c2ccccc2C=Cc2ccccc21 [CARBAMAZEPINE]    265.1
3) COc1ccc2c(c1)c(CC(=O)O)c(C)n2C(=O)c1ccc(Cl)cc1    269.3

For this molecule ( `O=C(O)c1cn(C2CC2)c2cc(N3CCNCC3)c(F)cc2c1=O` ), measured TERMINAL_BW is 237.8

For this molecule ( `NC(=O)N/N=C/c1ccc([N+](=O)[O-])o1` ), measured TERMINAL_BW is 259.3

For this molecule ( `Clc1ccccc1CN1CCc2sccc2C1` ), measured TERMINAL_BW is 252.6

For this molecule ( `Cn1c(=O)c2[nH]cnc2n(C)c1=O.O` ), measured TERMINAL_BW is 278.6

For this molecule ( `C[C@H](CS)C(=O)N1CCC[C@H]1C(=O)O` ), measured TERMINAL_BW is 274

For this molecule ( `CN(C)CCC=C1c2ccccc2CCc2ccccc21` ), measured TERMINAL_BW is 259.7

For this molecule ( `CC(=O)Oc1ccccc1C(=O)O` ), measured TERMINAL_BW is 272.8

For this molecule ( CCc1cc(C(N)=S)ccn1 [ETHIONAMIDE] ), measured TERMINAL_BW is 270.2

For this molecule ( `CCCC(CCC)C(=O)O` ), measured TERMINAL_BW is 256.3

For this molecule ( `O=C(O)c1cc(/N=N/c2ccc(S(=O)(=O)Nc3ccccn3)cc2)ccc1O` ), measured TERMINAL_BW is 263.5

For this molecule ( CSc1ccc2c(c1)N(CCC1CCCCN1C)c1ccccc1S2 (stereo not given) ), measured TERMINAL_BW is 272.6

For this molecule ( `CO[C@H]1/C=C/O[C@@]2(C)Oc3c(C)c(O)c4c(O)c(c(/C=N/N5CCN(C)CC5)c(O)c4c3C2=O)NC(=O)/C(C)=C\C=C\[C@H](C)[C@H](O)[C@@H](C)[C@@H](O)[C@@H](C)[C@H](OC(C)=O)[C@@H]1C` ), measured TERMINAL_BW is 275.2
